Study Target: UniProtKB Q9UNQ0
Sequence (Q9UNQ0 whole entry): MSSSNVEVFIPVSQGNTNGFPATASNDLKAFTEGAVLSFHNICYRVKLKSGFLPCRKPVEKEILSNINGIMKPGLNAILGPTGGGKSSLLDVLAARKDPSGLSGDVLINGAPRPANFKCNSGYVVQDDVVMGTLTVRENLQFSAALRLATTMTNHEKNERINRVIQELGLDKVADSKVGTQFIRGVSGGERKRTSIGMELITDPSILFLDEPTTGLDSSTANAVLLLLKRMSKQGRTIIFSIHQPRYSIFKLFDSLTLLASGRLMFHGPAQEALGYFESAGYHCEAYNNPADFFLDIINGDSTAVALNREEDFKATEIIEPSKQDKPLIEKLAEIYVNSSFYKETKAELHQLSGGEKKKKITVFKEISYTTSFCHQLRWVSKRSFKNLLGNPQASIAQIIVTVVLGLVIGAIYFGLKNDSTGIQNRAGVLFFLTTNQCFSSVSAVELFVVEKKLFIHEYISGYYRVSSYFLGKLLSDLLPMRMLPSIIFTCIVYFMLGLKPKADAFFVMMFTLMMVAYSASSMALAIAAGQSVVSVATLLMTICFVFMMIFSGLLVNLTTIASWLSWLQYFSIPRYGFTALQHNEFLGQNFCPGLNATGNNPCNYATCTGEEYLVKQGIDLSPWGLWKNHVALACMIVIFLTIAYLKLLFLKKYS
Measurement Notes: Asymmetry efflux ratio in MDCK2 cells expressing human ABCG2 assessed as ABCG2-mediated drug transport ratio at 50 uM after 0.5 to 1 hrs by HPLC method
Type: ADME, cell-based
Observable: efflux ratio at 50 µM
Please respond with just the number, no unit label.

**Q:** Find the measured efflux ratio at 50 µM: item COc1ccnc(C[S@@+]([O-])c2nc3cc(OC(F)F)ccc3[nH]2)c1OC , target or system UniProtKB Q9UNQ0.
**A:** 2.45

Consider now this further molecule.
**Q:** # get_value(readout= efflux ratio at 50 µM, system= UniProtKB Q9UNQ0) for COc1ccnc(C[S@+]([O-])c2nc3cc(OC(F)F)ccc3[nH]2)c1OC
**A:** 1.44
